species: Rattus norvegicus; assay: Open TG-GATES - Regimen: Single; assay type: toxicity, organism-based, Sprague-Dawley; design: regimen Single, gender Male, age 6 weeks; conditions: in vivo, po, 100 mg/kg, 3 h, tissue Plasma, route gavage, dose level High
endpoint-label: TP
Note: a bare number is incomplete; add the unit.

Before answering, review these 3 worked examples.
smiles-code | TP
CN(C)CCN(Cc1cccs1)c1ccccn1 | 5.4 g/dL
CC1=C(/C=C/C(C)=C/C=C/C(C)=C/CO)C(C)(C)CCC1 | 5.6 g/dL
CN(C)CCCN1c2ccccc2CCc2ccccc21 | 5.3 g/dL

We next turn to a different molecule, shown below.
Report TP for CN(C)CCCN1c2ccccc2CCc2ccc(Cl)cc21 please.
5.3 g/dL
